# test.summary: Plasma pharmacokinetics of gartisertib
# Type: in vivo, human
# recorded.conditions: human, plasma, oral, cohort A2, day 8; read-out: drug clearance
measure: clearance

Let me know recorded clearance for Nc1nn2cc(F)cnc2c1C(=O)Nc1cncc(F)c1N1CCC(C(=O)N2CCN(C3COC3)CC2)CC1 , thanks. 3980 to 7070 mL/min

* * *

# test.summary: Plasma pharmacokinetics of gartisertib
# Assay type: in vivo, human
# recorded.conditions: human, plasma, oral, cohorts A, A2, and B1; read-out: half-life (t1/2)
measure: half-life

Complete the entry with half-life for Nc1nn2cc(F)cnc2c1C(=O)Nc1cncc(F)c1N1CCC(C(=O)N2CCN(C3COC3)CC2)CC1 [gartisertib, Gartisertib] 2 to 5 h

* * *

# test.summary: Plasma pharmacokinetics of gartisertib
# Format: in vivo, human
# recorded.conditions: human, plasma, oral; cohort A, four highest dose levels; read-out: volume of distribution based on the terminal elimination phase following extravascular administration
measure: Vd

Assign Vd to the following record: Nc1nn2cc(F)cnc2c1C(=O)Nc1cncc(F)c1N1CCC(C(=O)N2CCN(C3COC3)CC2)CC1 [gartisertib, Gartisertib] 1480 to 4060 L

* * *

# target: UniProt:Q64550
# Sequence (Q64550 30-535): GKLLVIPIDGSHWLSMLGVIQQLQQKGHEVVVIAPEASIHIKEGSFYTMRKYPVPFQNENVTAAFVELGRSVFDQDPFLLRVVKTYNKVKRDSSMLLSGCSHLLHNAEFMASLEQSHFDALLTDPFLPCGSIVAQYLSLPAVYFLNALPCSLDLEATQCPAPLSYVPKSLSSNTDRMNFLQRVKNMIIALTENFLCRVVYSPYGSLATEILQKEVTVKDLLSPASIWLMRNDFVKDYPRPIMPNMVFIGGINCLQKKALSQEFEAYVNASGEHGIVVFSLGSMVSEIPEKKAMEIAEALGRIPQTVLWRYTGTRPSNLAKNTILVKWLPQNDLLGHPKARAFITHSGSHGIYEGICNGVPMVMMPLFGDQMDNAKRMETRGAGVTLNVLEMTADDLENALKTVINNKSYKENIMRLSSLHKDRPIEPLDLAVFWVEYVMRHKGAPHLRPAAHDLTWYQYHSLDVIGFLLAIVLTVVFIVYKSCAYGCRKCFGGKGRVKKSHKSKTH
measure: IC50

For the compound Nc1nn2cc(F)cnc2c1C(=O)Nc1cncc(F)c1N1CCC(C(=O)N2CCN(C3COC3)CC2)CC1 , report IC50. > 50 µM

* * *

# test.summary: Plasma pharmacokinetics of gartisertib
# Format: in vivo, human
# recorded.conditions: human, plasma, oral; cohort A, four highest dose levels; read-out: geometric mean terminal half-life
# Text: The secondary objectives for cohorts A, A2, and B1 were to assess antitumour activity and PK. Endpoints associated with antitumour activity included confirmed best overall response (BOR), according to RECIST v1.1. PK endpoints included PK parameter estimates, derived from plasma concentration-time data. Please see the Supplementary Materials for details on further PK endpoints and assessments as well as the PK assessment schedule (Supplementary Table S2). […]
measure: half-life

Kindly indicate its recorded half-life. Item: Nc1nn2cc(F)cnc2c1C(=O)Nc1cncc(F)c1N1CCC(C(=O)N2CCN(C3COC3)CC2)CC1 2.22 to 4.61 h
